Biological target: RBDSARS-CoV (SARS-CoV S protein residues 318-510, C-terminal His-tag) (SARS-CoV, UniProt P59594 318-510)
Test: ELISA
IC50 by entry:
READOUT_LABEL: IC50

BINDER | MEASUREMENT
4P-21 (VHH) VHH: HVQLVESGGGLAQAGGNLRLSCAASGGTFSDYAMGWFRRPPGKEREFVAAISRGGSTFYADSVKGRFTISRDNAKNTVYLQMTSLKPEDTAVYYCAADRSPLFFGVPRSHGEYDYWGQGTQVTVSS | < 10 nM
5p-128 (VHH) VHH: HVQLVESGGGLVQAGGSLRLSCAASRIFSTSAMGWFRQAPGKERQFVAGTDWSGTNIHYADSVKGRFAISTDNAKNTVYLQMNSLKPEDTAVYYCAQGGWGVSQPIEVDYWGKGTQVTVSS | 10 to 100 nM
5p-124 (VHH) VHH: HVQLVESGGGLVQAGDSLRLSCAASRIFSTSAMGWFRQAPGKEREFVAAISWSGGNVHYLDSVKGRFAISADNSKSTVFLQMNSLKPEDTAVYYCAQGGWGIRQVIEVDYWGKGTQVTVSS | < 10 nM
5p-171 (VHH) VHH: QVQLVESGGGLVQTGGSLRLSCAASGRTFSTYTMGWFRQAPGKEREFVAAITPTGYGTKSADSVKGRFIISRDNPKNTVYLQMNNLKPEDTAVYYCAARSGTITNQDQYDFHYWGQGTQVTVSS | 10 to 100 nM
5p-23 (VHH) VHH: HVQLVESGGGLVQAGDSLRLSCAASGGTFSSYAMGWFRQVPGKEREFVAAISRGGSTDYADSVKGRFTISRDNAKNTVNLQMNSLKPEDTAVYYCAADRSPLFWGMSQSHGEYDYWGQGTQVTVSS | 10 to 100 nM
